# Test system: DAUDI
# testMethodNotes: Panel of growth inhibition assays (OncoPanel 240)
# Assay type: cell-based
# experimentalConditions: Homo sapiens, 72 h, lymphoma, read-out: IC50 (Oncopanel, cell count)
measuredProperty: pIC50
// returns pIC50 (minus log10 of molar concentration), number only

State measured pIC50 of the compound `CNc1nc(NCc2ncccn2)c2c(-c3ccc4ncccc4c3)c[nH]c2n1` with DAUDI.
7.28

---

# Tested on: NCI-H1048
# testMethodNotes: Cell proliferation assay (CellTiter-Glo)
# Type: cell-based
# experimentalConditions: Homo sapiens, 72 h treatment, lung cancer, read-out: IC50 (growth inhibition)
measuredProperty: IC50 (nM)
Your answer is read as nM, so omit the unit and give the number.

Query IC50 for `CNc1nc(NCc2ncccn2)c2c(-c3ccc4ncccc4c3)c[nH]c2n1`
84.4

---

# System: Wi38
# testMethodNotes: Cell proliferation assay (CellTiter-Glo)
# Assay type: cell-based
# experimentalConditions: Homo sapiens, WI-38; 72 h treatment; normal lung fibroblast; read-out: IC50 (growth inhibition)
measuredProperty: IC50 (nM)
Your answer is read as nM, so omit the unit and give the number.

Query IC50 for `CNc1nc(NCc2ncccn2)c2c(-c3ccc4ncccc4c3)c[nH]c2n1`
257

---

# Tested on: HT
# testMethodNotes: Panel of growth inhibition assays (OncoPanel 240)
# Format: cell-based
# experimentalConditions: Homo sapiens, 72 h, lymphoma, read-out: IC50 (Oncopanel, cell count)
# Experimental: The KINOMEScan‐based kinase selectivity assay was performed at the DiscoverX Corporation (Fremont, CA, USA). […] According to the study reports from Eurofins Inc., cells were seeded into 384 well plates at a single cell density in standardized media. […] The number of nuclei was counted and normalized. Cellular response parameters were calculated using nonlinear regression to a sigmoidal single-site dose response model and the IC50 value of each cell line was calculated. […]
measuredProperty: IC50 (nM)
Your answer is read as nM, so omit the unit and give the number.

Query IC50 for CNc1nc(NCc2ncccn2)c2c(-c3ccc4ncccc4c3)c[nH]c2n1 [T-025]
228

---

# Test system: RPMI8226
# testMethodNotes: Panel of growth inhibition assays (OncoPanel 240)
# Type: cell-based
# experimentalConditions: Homo sapiens, RPMI-8226; 72 h; myeloma; read-out: IC50 (Oncopanel, cell count)
measuredProperty: IC50 (nM)
Your answer is read as nM, so omit the unit and give the number.

Query IC50 for `CNc1nc(NCc2ncccn2)c2c(-c3ccc4ncccc4c3)c[nH]c2n1`
99.3

---

measuredProperty: Kd (nM)
Your answer is read as nM, so omit the unit and give the number.

State measured Kd of the molecule `CNc1nc(NCc2ncccn2)c2c(-c3ccc4ncccc4c3)c[nH]c2n1` with HIPK2 (Homo sapiens).
Sequence (Q9H2X6 whole entry): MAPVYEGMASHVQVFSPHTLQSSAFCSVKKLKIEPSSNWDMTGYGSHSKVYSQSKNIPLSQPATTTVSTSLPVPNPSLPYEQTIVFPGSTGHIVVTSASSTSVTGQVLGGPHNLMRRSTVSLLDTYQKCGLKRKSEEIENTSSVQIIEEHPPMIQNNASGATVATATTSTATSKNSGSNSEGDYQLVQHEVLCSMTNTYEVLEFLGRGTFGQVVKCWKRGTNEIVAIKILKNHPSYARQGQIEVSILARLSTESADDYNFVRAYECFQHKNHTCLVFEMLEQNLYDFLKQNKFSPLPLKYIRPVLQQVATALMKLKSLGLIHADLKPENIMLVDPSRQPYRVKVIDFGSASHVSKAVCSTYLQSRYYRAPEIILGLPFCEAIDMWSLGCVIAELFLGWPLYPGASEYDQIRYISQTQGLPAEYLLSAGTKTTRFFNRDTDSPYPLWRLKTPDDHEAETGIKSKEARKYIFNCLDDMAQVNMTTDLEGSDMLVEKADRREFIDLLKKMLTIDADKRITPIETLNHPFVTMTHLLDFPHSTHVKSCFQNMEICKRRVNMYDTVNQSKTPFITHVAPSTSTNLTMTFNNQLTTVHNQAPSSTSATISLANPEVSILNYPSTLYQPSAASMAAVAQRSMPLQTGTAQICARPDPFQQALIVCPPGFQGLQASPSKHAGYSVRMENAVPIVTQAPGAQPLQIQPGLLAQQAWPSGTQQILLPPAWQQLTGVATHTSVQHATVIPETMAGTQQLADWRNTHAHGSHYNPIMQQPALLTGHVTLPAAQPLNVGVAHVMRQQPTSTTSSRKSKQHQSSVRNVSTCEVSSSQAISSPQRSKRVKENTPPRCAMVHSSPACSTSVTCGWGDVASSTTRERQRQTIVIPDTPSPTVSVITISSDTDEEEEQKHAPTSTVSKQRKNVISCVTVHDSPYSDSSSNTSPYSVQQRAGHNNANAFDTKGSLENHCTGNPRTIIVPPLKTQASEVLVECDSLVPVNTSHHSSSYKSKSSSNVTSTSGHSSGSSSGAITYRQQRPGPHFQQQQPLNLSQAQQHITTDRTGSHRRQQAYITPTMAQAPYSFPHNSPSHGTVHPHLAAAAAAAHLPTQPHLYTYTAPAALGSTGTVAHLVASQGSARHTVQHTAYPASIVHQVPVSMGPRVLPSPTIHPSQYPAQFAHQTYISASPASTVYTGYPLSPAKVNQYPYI
96

---

# Tested on: U266B1
# testMethodNotes: Panel of growth inhibition assays (OncoPanel 240)
# Format: cell-based
# experimentalConditions: 72 h; myeloma; read-out: IC50 (Oncopanel, cell count)
# Protocol: The KINOMEScan‐based kinase selectivity assay was performed at the DiscoverX Corporation (Fremont, CA, USA). […] According to the study reports from Eurofins Inc., cells were seeded into 384 well plates at a single cell density in standardized media. […] The number of nuclei was counted and normalized. Cellular response parameters were calculated using nonlinear regression to a sigmoidal single-site dose response model and the IC50 value of each cell line was calculated. […]
measuredProperty: IC50 (nM)
Your answer is read as nM, so omit the unit and give the number.

Query IC50 for `CNc1nc(NCc2ncccn2)c2c(-c3ccc4ncccc4c3)c[nH]c2n1`
35.1
